Hey, just so you know, these numbers are from patent US8268990B2.

Assign EC50 to each entry below.
# Experimental System: Recombinant human TLR7 (Homo sapiens)
# Construct: TLR7 in vector pUNO, blasticidin selection
# Sequence (Q9NYK1 27-1049): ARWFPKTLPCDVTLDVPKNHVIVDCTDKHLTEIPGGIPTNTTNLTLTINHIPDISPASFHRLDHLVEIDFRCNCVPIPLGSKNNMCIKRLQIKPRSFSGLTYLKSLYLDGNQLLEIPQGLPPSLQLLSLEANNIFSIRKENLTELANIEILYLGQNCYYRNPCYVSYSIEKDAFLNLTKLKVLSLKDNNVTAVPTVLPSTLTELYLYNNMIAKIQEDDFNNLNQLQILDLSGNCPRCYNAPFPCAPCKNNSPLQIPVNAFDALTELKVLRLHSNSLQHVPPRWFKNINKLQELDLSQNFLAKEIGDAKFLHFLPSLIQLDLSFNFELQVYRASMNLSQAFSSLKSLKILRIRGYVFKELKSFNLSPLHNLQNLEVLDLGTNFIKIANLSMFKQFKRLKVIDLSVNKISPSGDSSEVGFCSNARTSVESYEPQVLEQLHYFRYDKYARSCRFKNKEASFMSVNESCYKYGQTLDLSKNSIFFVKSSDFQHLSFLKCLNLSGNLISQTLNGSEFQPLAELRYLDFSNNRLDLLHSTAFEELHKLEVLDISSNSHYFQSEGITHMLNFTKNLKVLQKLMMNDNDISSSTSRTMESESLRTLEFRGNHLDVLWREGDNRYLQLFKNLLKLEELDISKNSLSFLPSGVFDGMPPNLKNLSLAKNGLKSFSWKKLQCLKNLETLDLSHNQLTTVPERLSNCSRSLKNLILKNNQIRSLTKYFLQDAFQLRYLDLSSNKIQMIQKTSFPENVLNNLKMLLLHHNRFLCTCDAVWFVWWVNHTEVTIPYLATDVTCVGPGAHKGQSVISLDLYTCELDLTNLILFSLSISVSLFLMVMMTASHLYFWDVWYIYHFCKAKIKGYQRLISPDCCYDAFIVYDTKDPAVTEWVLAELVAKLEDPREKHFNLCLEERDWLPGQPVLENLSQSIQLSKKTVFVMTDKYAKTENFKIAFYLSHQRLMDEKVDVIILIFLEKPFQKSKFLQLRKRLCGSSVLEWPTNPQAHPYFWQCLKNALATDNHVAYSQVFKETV
# Experimental Details: Human TLR7 Assay (SEAP reporter);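 note: SEAP driven by an NFkB-responsive composite promoter, pEC50 read at half of each compound's own maximal SEAP induction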
# Condition Context: HEK293 cell line stably expressing human TLR7 and pNiFty2-SEAP reporter; SEAP induction after overnight incubation at 37° C., 0.1% (v/v) DMSO
Please respond with the number in nM and leave the unit unwritten.

-- ask Entry CCCCNc1nc(N)nc(C)c1Cc1cc(CC(=O)OC)ccc1O [Example 99] : reported EC50 = ?
-- reply 79.4

-- ask Continue with CCCCNc1nc(N)nc(C)c1Cc1ccc(CC(=O)OCCO)cc1OC [Example 89]
-- reply 50.1

-- ask Continue with CCCCCNc1nc(N)nc(C)c1CCCN(Cc1cccc(CC(=O)OC)c1)C(=O)CN(C)C [Example 3]
-- reply 631

-- ask Continue with CCC[C@@H](CO)Nc1nc(N)nc(C)c1Cc1ccc(CC(=O)OC)cc1OC [Example 30]
-- reply 31.6

-- ask Continue with CCCCCNc1nc(N)nc(C)c1CCCN(Cc1cccc(CC(=O)OC)c1)S(C)(=O)=O [Example 13]
-- reply 2510
